biological target: GSK3β (H350L) (Homo sapiens (Human)); conditions: read-out: GSK3β Ki
Sequence (P49841 whole entry, stated change not applied): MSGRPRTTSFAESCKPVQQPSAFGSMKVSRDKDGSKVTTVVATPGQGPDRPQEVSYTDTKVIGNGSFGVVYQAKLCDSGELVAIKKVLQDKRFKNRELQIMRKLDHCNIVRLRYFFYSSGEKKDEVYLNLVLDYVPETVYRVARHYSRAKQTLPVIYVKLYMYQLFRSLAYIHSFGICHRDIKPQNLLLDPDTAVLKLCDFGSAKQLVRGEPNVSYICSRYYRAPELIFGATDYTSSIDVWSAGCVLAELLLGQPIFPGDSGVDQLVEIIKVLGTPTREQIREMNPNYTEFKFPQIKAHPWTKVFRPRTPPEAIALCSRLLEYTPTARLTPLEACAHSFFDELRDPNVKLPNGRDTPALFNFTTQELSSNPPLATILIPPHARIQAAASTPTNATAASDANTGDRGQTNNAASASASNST
READOUT_TYPE: Ki (nM)
Numbers only here, please. The scale is nM.

query: Can you look up the measured Ki of `Cc1cnc(CC(=O)Nc2cc([C@H]3CC[C@@H](OC(=O)N[C@@H](C)[C@@H](C)F)C3)[nH]n2)o1` for me?
result: 43.2

query: Can you look up the measured Ki of `CC[C@H](C)NC(=O)O[C@@H]1CC[C@H](c2cc(NC(=O)Cc3ccc4c(cnn4C)c3)n[nH]2)C1` for me?
result: 9.58

query: Can you look up the measured Ki of `C[C@H]1COCCN1C(=O)O[C@@H]1CC[C@H](c2cc(NC(=O)Cc3cc(F)cc(F)c3)n[nH]2)C1` for me?
result: 8.71

query: Can you look up the measured Ki of `CC[C@H](C)NC(=O)O[C@@H]1CC[C@H](c2cc(NC(=O)Cc3ccnn3C)n[nH]2)C1` for me?
result: 72.4

query: Can you look up the measured Ki of `CC[C@H](C)NC(=O)O[C@@H]1CC[C@H](c2cc(NC(=O)c3ccc(C)nc3)n[nH]2)C1` for me?
result: 94.3

query: Can you look up the measured Ki of `COc1cc(CC(=O)Nc2cc([C@H]3CC[C@@H](OC(=O)N4[C@@H](C)C[C@@H]4C)C3)[nH]n2)ccn1` for me?
result: 5.58

query: Can you look up the measured Ki of `CC[C@H](C)NC(=O)O[C@@H]1CC[C@H](c2cc(NC(=O)Cc3ccc(OC)nc3)n[nH]2)C1` for me?
result: 10.7

* * *

biological target: CDK2/Cyclin E1 full length (Homo sapiens (Human), UniProt P24941); assay: CDK2/Cyclin E1 full length mobility shift assay
READOUT_TYPE: Ki (nM)
Numbers only here, please. The scale is nM.

query: Checklist item: Ki tested on CDK2/Cyclin E1 full length (Homo sapiens (Human), UniProt P24941), entry COc1cc(CC(=O)Nc2cc([C@H]3CC[C@@H](OC(=O)N[C@@H](C)CF)C3)[nH]n2)ccn1 [Example 100] , value?
result: 0.43

query: Checklist item: Ki tested on CDK2/Cyclin E1 full length (Homo sapiens (Human), UniProt P24941), entry CCC1(C)CCN1C(=O)O[C@@H]1CC[C@H](c2cc(NC(=O)Cc3cc(C)no3)n[nH]2)C1 (single isomer, unassigned) [Example 604] , value?
result: 0.08

query: Checklist item: Ki tested on CDK2/Cyclin E1 full length (Homo sapiens (Human), UniProt P24941), entry CC[C@H](C)NC(=O)O[C@@H]1CC[C@H](c2cc(NC(=O)Cc3cn(C)nc3OC)n[nH]2)C1 [Example 351] , value?
result: 2.77

query: Checklist item: Ki tested on CDK2/Cyclin E1 full length (Homo sapiens (Human), UniProt P24941), entry Cc1ncc(CC(=O)Nc2cc([C@H]3CC[C@@H](OC(=O)NC(C)(C)C)C3)[nH]n2)s1 [Example 113] , value?
result: 0.16

query: Checklist item: Ki tested on CDK2/Cyclin E1 full length (Homo sapiens (Human), UniProt P24941), entry C[C@H]1[C@H](O)CN1C(=O)O[C@@H]1CC[C@H](c2cc(NC(=O)Cc3cc(F)cc(F)c3)n[nH]2)C1 [Example 617] , value?
result: 0.27

query: Checklist item: Ki tested on CDK2/Cyclin E1 full length (Homo sapiens (Human), UniProt P24941), entry COC[C@H](C)NC(=O)O[C@@H]1CC[C@H](c2cc(NC(=O)Cc3cnc(C(F)(F)F)cn3)n[nH]2)C1 [Example 523] , value?
result: 2.49

query: Checklist item: Ki tested on CDK2/Cyclin E1 full length (Homo sapiens (Human), UniProt P24941), entry COc1cc(CC(=O)Nc2cc([C@H]3CC[C@@H](OC(=O)NC(C)CC(F)(F)F)C3)[nH]n2)ccn1 (single isomer, unassigned) [Example 77] , value?
result: 0.39

query: Checklist item: Ki tested on CDK2/Cyclin E1 full length (Homo sapiens (Human), UniProt P24941), entry CC(C)NC(=O)O[C@@H]1CC[C@H](c2cc(NC(=O)C3COc4ccccc43)n[nH]2)C1 (single isomer, unassigned) [Example 56] , value?
result: 0.25

query: Checklist item: Ki tested on CDK2/Cyclin E1 full length (Homo sapiens (Human), UniProt P24941), entry COc1cc(CC(=O)Nc2cc([C@@H]3CC[C@H](OC(=O)N[C@H]4CC[C@@H](O)CC4)C3)[nH]n2)ccn1 [Example 552] , value?
result: 0.29

query: Checklist item: Ki tested on CDK2/Cyclin E1 full length (Homo sapiens (Human), UniProt P24941), entry Cc1cc(CC(=O)Nc2cc([C@H]3CC[C@@H](OC(=O)N4CCC[C@H]4C)C3)[nH]n2)on1 [Example 633] , value?
result: 2.11

query: Checklist item: Ki tested on CDK2/Cyclin E1 full length (Homo sapiens (Human), UniProt P24941), entry CC[C@H](C)NC(=O)O[C@@H]1CC[C@H](c2cc(NC(=O)c3cc(OC)nn3C)n[nH]2)C1 [Example 41] , value?
result: 0.2

query: Checklist item: Ki tested on CDK2/Cyclin E1 full length (Homo sapiens (Human), UniProt P24941), entry COc1ccc(CC(=O)Nc2cc([C@H]3CC[C@@H](OC(=O)NC4(C)CCOC4)C3)[nH]n2)cn1 (single isomer, unassigned) [Example 123] , value?
result: 0.13

query: Checklist item: Ki tested on CDK2/Cyclin E1 full length (Homo sapiens (Human), UniProt P24941), entry COc1nn(C)cc1CC(=O)Nc1cc([C@H]2CC[C@@H](OC(=O)NC(C)(C)C)C2)[nH]n1 [Example 309] , value?
result: 1.55

query: Checklist item: Ki tested on CDK2/Cyclin E1 full length (Homo sapiens (Human), UniProt P24941), entry CCCNC(=O)O[C@H]1CC[C@@H](c2cc(NC(=O)Cc3cnc(C)o3)n[nH]2)C1 [Example 175] , value?
result: 0.82

* * *

biological target: GSK3β (H350L) (Homo sapiens (Human)); conditions: read-out: GSK3β Ki
Field: pKi. Provide a value for each of the molecules that follow.
Just the number, please; pKi means minus log10 of the concentration in mol/L.

query: Can you look up the measured pKi of `CC[C@H](C)NC(=O)O[C@@H]1CC[C@H](c2cc(NC(=O)Cc3cncs3)n[nH]2)C1` for me?
result: 7.67

query: Can you look up the measured pKi of `COc1ncc(CC(=O)Nc2cc([C@H]3CC[C@@H](OC(=O)N4CCOC[C@H]4C)C3)[nH]n2)s1` for me?
result: 8.47

query: Can you look up the measured pKi of `CCNC(=O)O[C@@H]1CC[C@H](c2cc(NC(=O)Cc3ccc(OC)nc3)n[nH]2)C1` for me?
result: 7.81

query: Can you look up the measured pKi of `CCCNC(=O)O[C@H]1CC[C@@H](c2cc(NC(=O)Cc3ccnc(OC)c3)n[nH]2)C1` for me?
result: 7.68

* * *

target: CDK2/Cyclin E1 full length (Homo sapiens (Human), UniProt P24941); assay: CDK2/Cyclin E1 full length mobility shift assay
READOUT_TYPE: pKi
Just the number, please; pKi means minus log10 of the concentration in mol/L.

query: Can you look up the measured pKi of `CC[C@H](C)NC(=O)O[C@@H]1CC[C@H](c2cc(NC(=O)Cc3cnn(C)c3C)n[nH]2)C1` for me?
result: 9.24

query: Can you look up the measured pKi of CC(CC(F)(F)F)NC(=O)O[C@@H]1CC[C@H](c2cc(NC(=O)Cc3ccn(C)n3)n[nH]2)C1 (single isomer, unassigned) [Example 66] for me?
result: 9.77

query: Can you look up the measured pKi of `CCCNC(=O)O[C@H]1CC[C@@H](c2cc(NC(=O)c3cc(C)nn3C)n[nH]2)C1` for me?
result: 8.92

query: Can you look up the measured pKi of `CC[C@H](C)NC(=O)O[C@@H]1CC[C@H](c2cc(NC(=O)Cc3ccon3)n[nH]2)C1` for me?
result: 8.97

query: Can you look up the measured pKi of `CC(C)(C)NC(=O)O[C@@H]1CC[C@H](c2cc(NC(=O)Cc3ncccc3F)n[nH]2)C1` for me?
result: 9.26

query: Can you look up the measured pKi of `O=C(Cc1cc(F)cc(F)c1)Nc1cc([C@@H]2CC[C@H](OC(=O)N[C@H]3CC[C@@H](O)CC3)C2)[nH]n1` for me?
result: 9.62

query: Can you look up the measured pKi of CN1CC(CNC(=O)O[C@H]2CC[C@@H](c3cc(NC(=O)Cc4cc(F)cc(F)c4)n[nH]3)C2)OCC1=O (single isomer, unassigned) [Example 583] for me?
result: 8.57

query: Can you look up the measured pKi of `COc1cc(CC(=O)Nc2cc([C@H]3CC[C@@H](OC(=O)NC4CCOCC4)C3)[nH]n2)ccn1` for me?
result: 8.44

query: Can you look up the measured pKi of `Cc1cnc(CC(=O)Nc2cc([C@H]3CC[C@@H](OC(=O)N4CCC[C@@H]4C)C3)[nH]n2)o1` for me?
result: 9.28

query: Can you look up the measured pKi of `Cc1csc(CC(=O)Nc2cc([C@H]3CC[C@@H](OC(=O)NC(C)C)C3)[nH]n2)n1` for me?
result: 8.58

query: Can you look up the measured pKi of `CCN(C)C(=O)O[C@@H]1CC[C@H](c2cc(NC(=O)Cc3ccnc(OC)c3)n[nH]2)C1` for me?
result: 9.09

query: Can you look up the measured pKi of `CCNC(=O)O[C@@H]1CC[C@H](c2cc(NC(=O)Cc3ccc(C)nc3)n[nH]2)C1` for me?
result: 8.92

query: Can you look up the measured pKi of CCCNC(=O)O[C@@H]1CC[C@H](c2cc(NC(=O)Cc3ccccc3S(C)(=N)=O)n[nH]2)C1 (single isomer, unassigned) [Example 202] for me?
result: 8.73

query: Can you look up the measured pKi of `COC[C@H](C)NC(=O)O[C@@H]1CC[C@H](c2cc(NC(=O)Cc3ncc(OC)s3)n[nH]2)C1` for me?
result: 8.52

query: Can you look up the measured pKi of `C[C@H](CC(F)(F)F)NC(=O)O[C@@H]1CC[C@H](c2cc(NC(=O)Cc3cnn(C)c3)n[nH]2)C1` for me?
result: 9.38

query: Can you look up the measured pKi of `CCN(C)C(=O)O[C@@H]1CC[C@H](c2cc(NC(=O)Cc3cnc(C)s3)n[nH]2)C1` for me?
result: 8.94

query: Can you look up the measured pKi of CC(CC(F)F)NC(=O)O[C@@H]1CC[C@H](c2cc(NC(=O)Cc3cnn(C)c3)n[nH]2)C1 (single isomer, unassigned) [Example 387] for me?
result: 9.52

query: Can you look up the measured pKi of `COc1ccc(CC(=O)Nc2cc([C@H]3CC[C@@H](OC(=O)N[C@H]4CC[C@@](C)(O)CC4)C3)[nH]n2)cc1` for me?
result: 9.10

query: Can you look up the measured pKi of CCCNC(=O)O[C@@H]1CC[C@H](c2cc(NC(=O)Cc3ccc(OC)cn3)n[nH]2)C1 (stereo in doubt) for me?
result: 8.34

query: Can you look up the measured pKi of CCC(CO)CNC(=O)O[C@@H]1CC[C@H](c2cc(NC(=O)Cc3ccc(OC)nc3)n[nH]2)C1 (single isomer, unassigned) [Example 532] for me?
result: 9.05

query: Can you look up the measured pKi of `CC[C@H](C)NC(=O)O[C@@H]1CC[C@H](c2cc(NC(=O)Cc3sc(C)nc3C)n[nH]2)C1` for me?
result: 9.09

query: Can you look up the measured pKi of COc1cc(C(=O)Nc2cc([C@H]3CC[C@@H](OC(=O)NC4(C)CCOC4)C3)[nH]n2)n(C)n1 (single isomer, unassigned) [Example 480] for me?
result: 8.70

query: Can you look up the measured pKi of `COCCn1nccc1C(=O)Nc1cc([C@H]2CC[C@@H](OC(=O)NC(C)C)C2)[nH]n1` for me?
result: 9.28

query: Can you look up the measured pKi of `COc1cc(CC(=O)Nc2cc([C@H]3CC[C@@H](OC(=O)NC(C)(C)C)C3)[nH]n2)c(OC)cn1` for me?
result: 9.19

query: Can you look up the measured pKi of `COc1cc(CC(=O)Nc2cc([C@H]3CC[C@@H](OC(=O)NCC(F)F)C3)[nH]n2)ccn1` for me?
result: 8.74

query: Can you look up the measured pKi of Cc1ccc(CC(=O)Nc2cc([C@H]3CC[C@@H](OC(=O)NC(C)CC(F)(F)F)C3)[nH]n2)cn1 (single isomer, unassigned) [Example 75] for me?
result: 9.59

query: Can you look up the measured pKi of `Cc1cnc(CC(=O)Nc2cc([C@H]3CC[C@@H](OC(=O)NC4(C)CC4)C3)[nH]n2)cc1Cl` for me?
result: 9.70

All figures here come from patent US11014911B2.
